Observed pIC50, system Angiotensin-converting enzyme 2 (Homo sapiens, UniProt Q9BYF1).
Keep in mind that pIC50 stands for -log10 of concentration in molar terms.

Guide cases for pIC50, answers given:
input: Give the measured pIC50 of C=C(C)[C@@H]1CCC(C)=C[C@H]1c1c(OCCCC)cc(CCCCC)cc1OCCCC .
output: 6.77

input: And what about the molecule CCCCCc1cc(O)c([C@@H]2C=C(C)CC[C@H]2C(C)C)c(O)c1 ?
output: 5.86

input: And what about the molecule CCCCCc1cc(O)c(C2C=C(C)CC(C)(C)C2)c(O)c1 (centres undefined) ?
output: 5.40

input: And what about the molecule C=C(C)[C@@H]1CCC(C)=C[C@H]1c1c(OCC(=O)OCC)cc(CCCCC)cc1OCC(=O)OCC ?
output: 6.43

input: And what about the molecule CCCCCc1cc(OC(C)=O)c([C@@H]2C=C(C)CC[C@H]2[C@@H](C)CC=O)c(OC(C)=O)c1 ?
output: 7.40

New cases:
input: Give the measured pIC50 of C=C(C)[C@@H]1CCC(C)=C[C@H]1c1c(OCC)cc(CCCCC)cc1OCC .
output: 6.74

input: And what about the molecule CCCCCc1cc(O)cc2c1C1CC(C)(C)CC(C)(C1)O2 (centres undefined) ?
output: 8.00
